measurementNotes: Pharmacokinetics (PK) determination in SD rats (Experiment 4)
Format: in vivo
measurementConditions: Sprague-Dawley (SD), rat, plasma, iv, 2 mg/kg, read-out: AUCINF_obs
Task for the reader: assign each of the following molecules its reported AUC(0-inf).
Give bare numbers, in ng·h/mL.

Respectfully, I request AUC(0-inf) for each entry included below.
1. CNC(=O)C(C(=O)NO)N(C)C(=O)c1ccc(C#CC#Cc2ccc(CO)o2)cc1 (stereo not shown) [Compound 5]
2. Cn1nccc1-c1ccc(C#Cc2ccc(-c3ccn(CCC(C)(C(=O)NO)S(C)(=O)=O)c(=O)c3)cc2)cc1 (stereo not shown) [Compound 38]
3. C[C@@H](O)[C@H](NC(=O)c1ccc(C#CC#Cc2ccc(CN3CCOCC3)o2)cc1)C(=O)NO [Compound 23]

8150
1990
1160

Please look at this molecule and report its AUC(0-inf): CC(O)[C@H](NC(=O)c1ccc(C#CC#Cc2ccc(CO)o2)cc1)C(=O)NO (stereo in doubt) [Compound 6]
4010

---

measurementNotes: Pharmacokinetics (PK) determination in SD rats (Experiment 4)
Assay type: in vivo
measurementConditions: IV 2 mg/kg, plasma
measurementLabel: t1/2z (min)
Numbers only, in min.

Use the examples below as a reference point.
                                 smilesdata  valuereported
0  Cc1cc(C#CC#Cc2ccc(C(=O)N[C@H](C(=O)NO)[C@@H](C)O)cc2)oc1CO             27
1  C[C@@H](O)[C@H](NC(=O)c1ccc(C#CC#Cc2ccco2)cc1)C(=O)NO           24.6
2  C[C@@H](O)[C@H](NC(=O)c1ccc(C#CC#Cc2ccc(CN(C)C)o2)cc1)C(=O)NO             15

For the next question, use this molecule.
Please look at this molecule and report its t1/2z: C[C@@H](O)[C@H](NC(=O)c1ccc(C#CC#Cc2ccc(CNCCOCCO)s2)cc1)C(=O)NO
18

---

Task for the reader: assign each of the following compounds its reported MIC50.
Test system: polymyxin-resistant mcr-1 positive Enterobacteriaceae
measurementNotes: In vitro antibacterial effect on polymyxin-resistant mcr-1 positive Enterobacteriaceae, agar dilution MIC (Experiment 2)
Type: cell-based, Escherichia coli
measurementConditions: Escherichia coli, read-out: MIC50 Value, polymyxin-resistant mcr-1 positive Escherichia coli, agar dilution
Experimental: Tested samples: the compounds of the present invention, prepared according to the methods of the preparation examples; […] With reference to the agar dilution method in CLSI, the MIC value of the tested drugs to the polymyxin resistant mcr-1 positive Escherichia coli were determined. […]
One number for each entry, in µg/mL.

Use the examples below as a reference point.
>>> print(df.to_string())
                                   compound  unitssymbol  valuereported
0  O=C(O)c1cn(C2CC2)c2cc(N3CCNCC3)c(F)cc2c1=O [Ciprofloxacin]        µg/mL              4
1  C[C@@H](O)[C@H]1C(=O)N2C(C(=O)O)=C(SCCN=CN)C[C@H]12 [Imipenem, reference compound]        µg/mL          0.125
2  CN(C)[C@@H]1C(O)=C(C(N)=O)C(=O)[C@@]2(O)C(O)=C3C(=O)c4c(O)cccc4[C@@](C)(O)[C@H]3C[C@@H]12 [Tetracycline]        µg/mL             32

Please indicate recorded MIC50 of CO/N=C(\C(=O)N[C@@H]1C(=O)N2C(C(=O)O)=C(COC(C)=O)CS[C@H]12)c1csc(N)n1 [Cefotaxime] measured with polymyxin-resistant mcr-1 positive Enterobacteriaceae.
2

---

measurementNotes: Pharmacokinetics (PK) determination in SD rats (Experiment 4)
Type: in vivo
measurementConditions: IV 2 mg/kg, plasma
Method: The compound of the present invention, self-prepared and dissolved in a suitable solvent. Instrument and equipment: API4000 LC-MS/MS Chromatographic column: Waters XBridge C18(2.1×50 mm, […]) Rat blood collection: Animals were fixed. The animal's tail was heated with a water bathtub 10 minutes before each time point. About 200 μL of the blood was collected through the caudal vein. After the blood collection, the blood was placed in an anticoagulation tube containing heparin sodium. […]
measurementLabel: t1/2z

Use the examples below as a reference point.
>>> print(df.to_string())
                                   compound    valuereported
0  C[C@@H](O)[C@H](NC(=O)c1ccc(C#CC#Cc2ccc(CN3CCOCC3)s2)cc1)C(=O)NO [Compound 43]   16.8 ± 0.6 min
1  C[C@@H](O)[C@H](NC(=O)c1ccc(C#CC#Cc2ccc(CO)s2)cc1)C(=O)NO [Compound 41]   19.2 ± 2.4 min
2  CNCc1ccc(C#CC#Cc2ccc(C(=O)N[C@H](C(=O)NO)[C@@H](C)O)cc2)o1 [Compound 15]  44.4 ± 13.2 min
3  Cn1nc(CO)cc1-c1ccc(C#Cc2ccc(C(=O)N[C@H](C(=O)NO)C(C)(C)N)cc2)cc1 [Compound 37]   158 ± 45.6 min
4  C[C@@H](O)[C@H](NC(=O)c1ccc(C#CC#Cc2ccc(CO)n2C)cc1)C(=O)NO [Compound 33]   15.6 ± 2.4 min

Respectfully, I request t1/2z for each entry included below.
1. C[C@@H](O)[C@H](NC(=O)c1ccc(C#CC#Cc2ccc(CN3CCOCC3)o2)cc1)C(=O)NO [Compound 23]
2. CNC(=O)C(C(=O)NO)N(C)C(=O)c1ccc(C#CC#Cc2ccc(CO)o2)cc1 (centres unmarked) [Compound 5]
3. C[C@@H](O)[C@H](NC(=O)c1ccc(/C=C/C=C/c2ccc(CO)o2)nc1)C(=O)NO [Compound 32]
4. C[C@@H](O)[C@H](NC(=O)c1ccc(C#CC#Cc2ccc(COCCOCCO)o2)cc1)C(=O)NO [Compound 21]
5. Cn1nccc1-c1ccc(C#Cc2ccc(-c3ccn(CCC(C)(C(=O)NO)S(C)(=O)=O)c(=O)c3)cc2)cc1 (centres unmarked) [Compound 38]

1: 12.6 ± 3.6 min; 2: 42.6 ± 6.6 min; 3: 30.4 ± 10.8 min; 4: 9.6 ± 0.6 min; 5: 75 ± 5.4 min

Please look at this compound and report its t1/2z: C[C@@H](O)[C@H](NC(=O)c1ccc(C#CC#Cc2ccc(CN3CCN(C)CC3)o2)cc1)C(=O)NO [Compound 13]
21 ± 0.6 min
